Origin of measurements: patent US20240182536A1

Recorded measurements of HEK-Blue EC50 pM, NO BP (50 nM BP run), one per entry
Target: T1, IL-18 receptors on HEK-Blue IL-18 reporter cells (InvivoGen) (UniProt Q13478 19-541; O95256 20-599)
T1 sequence (looked up) 1: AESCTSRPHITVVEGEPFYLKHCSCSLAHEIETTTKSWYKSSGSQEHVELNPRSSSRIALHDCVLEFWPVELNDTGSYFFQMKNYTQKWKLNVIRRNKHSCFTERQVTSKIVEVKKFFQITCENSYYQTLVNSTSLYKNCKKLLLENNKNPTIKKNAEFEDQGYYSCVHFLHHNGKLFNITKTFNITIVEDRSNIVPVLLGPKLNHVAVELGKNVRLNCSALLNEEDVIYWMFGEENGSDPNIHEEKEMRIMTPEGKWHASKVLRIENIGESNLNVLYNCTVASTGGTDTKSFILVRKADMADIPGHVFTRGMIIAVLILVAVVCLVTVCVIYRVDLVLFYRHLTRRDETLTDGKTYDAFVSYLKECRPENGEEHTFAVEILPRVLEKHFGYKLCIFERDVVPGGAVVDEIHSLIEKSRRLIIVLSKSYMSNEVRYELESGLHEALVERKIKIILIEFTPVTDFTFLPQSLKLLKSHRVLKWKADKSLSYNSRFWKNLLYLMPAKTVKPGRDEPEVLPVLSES
T1 sequence (looked up) 2: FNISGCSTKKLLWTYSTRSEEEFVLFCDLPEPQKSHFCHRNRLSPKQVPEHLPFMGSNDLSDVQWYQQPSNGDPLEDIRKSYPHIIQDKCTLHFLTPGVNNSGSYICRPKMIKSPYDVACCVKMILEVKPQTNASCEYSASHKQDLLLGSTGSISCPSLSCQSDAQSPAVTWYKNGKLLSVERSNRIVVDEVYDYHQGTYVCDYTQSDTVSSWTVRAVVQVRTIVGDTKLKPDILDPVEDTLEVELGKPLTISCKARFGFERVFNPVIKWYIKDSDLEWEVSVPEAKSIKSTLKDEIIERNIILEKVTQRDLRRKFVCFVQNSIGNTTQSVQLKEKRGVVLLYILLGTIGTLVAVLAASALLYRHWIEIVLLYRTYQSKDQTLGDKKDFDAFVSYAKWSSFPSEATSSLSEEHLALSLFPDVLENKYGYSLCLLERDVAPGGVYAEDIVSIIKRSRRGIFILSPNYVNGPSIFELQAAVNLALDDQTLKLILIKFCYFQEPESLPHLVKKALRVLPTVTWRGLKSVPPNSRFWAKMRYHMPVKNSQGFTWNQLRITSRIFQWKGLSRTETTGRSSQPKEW
Assay: cell-based or functional assay
measurement_label: HEK-Blue EC50 pM, NO BP (50 nM BP run) (pM)

>>> observed_result("IL-18 variant G3V, M60K, D157E (ligand) YFVKLESKLSVIRNLNDQVLFIDQGNRPLFEDMTDSDMRDNAPRTIFIISMYKDSQPRGKAVTISVKSEKISTLSSENKIISFKEMNPPDNIKDTKSDIIFFQRSVPGHDNKMQFESSSYEGYFLASEKERDLFKLILKKEDELGDRSIMFTVQNEE")
0.08
>>> observed_result("IL-18 variant G3T, M60K, D157E (ligand) YFTKLESKLSVIRNLNDQVLFIDQGNRPLFEDMTDSDMRDNAPRTIFIISMYKDSQPRGKAVTISVKSEKISTLSSENKIISFKEMNPPDNIKDTKSDIIFFQRSVPGHDNKMQFESSSYEGYFLASEKERDLFKLILKKEDELGDRSIMFTVQNEE")
0.62
>>> observed_result("IL-18 variant G3V, M60K (ligand) YFVKLESKLSVIRNLNDQVLFIDQGNRPLFEDMTDSDMRDNAPRTIFIISMYKDSQPRGKAVTISVKSEKISTLSSENKIISFKEMNPPDNIKDTKSDIIFFQRSVPGHDNKMQFESSSYEGYFLASEKERDLFKLILKKEDELGDRSIMFTVQNED")
0.12
